So I've got a bunch of molecules here, and I need their composite z-score values.
assaySystem: Follistatin (Homo sapiens) (UniProt P19883)
Sequence (P19883 whole entry, looked up): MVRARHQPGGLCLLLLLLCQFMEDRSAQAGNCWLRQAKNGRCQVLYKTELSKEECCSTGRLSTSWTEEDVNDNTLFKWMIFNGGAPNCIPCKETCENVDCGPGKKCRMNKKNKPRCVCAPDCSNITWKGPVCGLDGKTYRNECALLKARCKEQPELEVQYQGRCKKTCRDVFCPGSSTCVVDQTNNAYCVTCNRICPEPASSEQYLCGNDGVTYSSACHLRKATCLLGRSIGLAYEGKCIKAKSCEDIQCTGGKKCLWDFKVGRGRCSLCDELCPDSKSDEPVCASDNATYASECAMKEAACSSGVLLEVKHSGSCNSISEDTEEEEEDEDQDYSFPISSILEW
protocol: follistatin binders on small-molecule microarrays, primary screen, biochemical, small-molecule microarray, 635/667 nm fluorescence (AID 1132)
runConditions: FST binding, 635 nm fluorescence, higher = more signal

Answered examples (2):
Quote composite z-score with test system Follistatin (Homo sapiens) (UniProt P19883) for COc1ccc([Si](C)(C)[C@H]2[C@H](CCn3cc([C@H](O)c4ccccc4)nn3)O[C@@]3(C(=O)N(Cc4cccc(N5CCC5=O)c4)c4ccccc43)[C@@H]2C)cc1
1.34

Quote composite z-score with test system Follistatin (Homo sapiens) (UniProt P19883) for COc1ccc([Si](C)(C)[C@@H]2[C@@H](CCn3cc([C@H](O)c4ccccc4)nn3)O[C@]3(C(=O)N(Cc4ccc(N5C(=O)c6cccc7cccc5c67)cc4)c4ccccc43)[C@H]2C)cc1
-0.7

Next up:
Quote composite z-score with test system Follistatin (Homo sapiens) (UniProt P19883) for COCCCNC(=O)[C@@]1(C)c2ccccc2C(=O)N(Cc2cc(C(F)(F)F)cc(C(F)(F)F)c2)[C@H]1c1ccc(CO)cc1
-0.672
